Listing of recorded pIC50 by entry.
- target: NaV 1.8 channel (Homo sapiens)
- protocol summary: Activity against NaV 1.8 channel (optical membrane potential assay)
pIC50: −log10 of the molar value.

O=C(OCc1cccc2c1OCO2)N1CCN(c2nc(-c3ccccc3O)nc3ccccc23)CC1 [Example 140]: < 5.00

# context switch: different compound, same pIC50
Reported pIC50, compound Cc1ccc2c(N3CC[C@@H](CNC(=O)C4CC4)C3)nc(-c3ccccc3O)nc2c1 [Example 311] : ____
> 5.70

====

- target: NaV 1.8 channel (Homo sapiens)
- protocol summary: Activity against NaV 1.8 channel (optical membrane potential assay)
pIC50: −log10 of the molar value.
endpoint name: pIC50

CCC(C)(O)C(=O)NC1CCN(c2nc(-c3ccccc3O)nc3ccccc23)CC1 (centres unmarked) [Example 242]: 5.00 to 5.70
CC(C)C[C@@H](O)C(=O)N1CCN(c2nc(-c3ccccc3O)nc3ccc(F)cc23)CC1 [Example 143]: 5.00 to 5.70

Recorded pIC50 of CCOC(=O)NCC1CCCN(c2nc(-c3ccccc3O)nc3cc(C)ccc23)C1 (centres unmarked) [Example 251] , please.
5.00 to 5.70

pIC50 for O=C(OCc1ccncc1)N1CCN(c2nc(-c3ccccc3O)nc3ccccc23)CC1 [Example 116] ?
5.00 to 5.70

Please look up its pIC50: Cc1ccc2c(N3CC[C@H](NC(=O)OC(C)(C)C)C3)nc(-c3ccccc3O)nc2c1 [Example 370]
> 5.70

Quick check: pIC50 of Cc1ccc2c(N3CCC(NC(=O)C(O)CC(C)C)CC3)nc(-c3ccccc3O)nc2c1 (centres unmarked) [Example 265] ?
< 5.00

Would you mind telling me what pIC50 value was observed for O=C(N[C@@H]1CCN(c2nc(-c3ccccc3O)nc3ccc(F)cc23)C1)C1CC1 [Example 329] ?
5.00 to 5.70

pIC50 for Cc1ccc2c(N3CCCC(C(=O)NCc4cccnc4)C3)nc(-c3ccccc3O)nc2c1 (centres unmarked) [Example 201] ?
5.00 to 5.70

====

- target: NaV 1.8 channel (Homo sapiens, UniProt Q9Y5Y9)
- Sequence (Q9Y5Y9 whole entry): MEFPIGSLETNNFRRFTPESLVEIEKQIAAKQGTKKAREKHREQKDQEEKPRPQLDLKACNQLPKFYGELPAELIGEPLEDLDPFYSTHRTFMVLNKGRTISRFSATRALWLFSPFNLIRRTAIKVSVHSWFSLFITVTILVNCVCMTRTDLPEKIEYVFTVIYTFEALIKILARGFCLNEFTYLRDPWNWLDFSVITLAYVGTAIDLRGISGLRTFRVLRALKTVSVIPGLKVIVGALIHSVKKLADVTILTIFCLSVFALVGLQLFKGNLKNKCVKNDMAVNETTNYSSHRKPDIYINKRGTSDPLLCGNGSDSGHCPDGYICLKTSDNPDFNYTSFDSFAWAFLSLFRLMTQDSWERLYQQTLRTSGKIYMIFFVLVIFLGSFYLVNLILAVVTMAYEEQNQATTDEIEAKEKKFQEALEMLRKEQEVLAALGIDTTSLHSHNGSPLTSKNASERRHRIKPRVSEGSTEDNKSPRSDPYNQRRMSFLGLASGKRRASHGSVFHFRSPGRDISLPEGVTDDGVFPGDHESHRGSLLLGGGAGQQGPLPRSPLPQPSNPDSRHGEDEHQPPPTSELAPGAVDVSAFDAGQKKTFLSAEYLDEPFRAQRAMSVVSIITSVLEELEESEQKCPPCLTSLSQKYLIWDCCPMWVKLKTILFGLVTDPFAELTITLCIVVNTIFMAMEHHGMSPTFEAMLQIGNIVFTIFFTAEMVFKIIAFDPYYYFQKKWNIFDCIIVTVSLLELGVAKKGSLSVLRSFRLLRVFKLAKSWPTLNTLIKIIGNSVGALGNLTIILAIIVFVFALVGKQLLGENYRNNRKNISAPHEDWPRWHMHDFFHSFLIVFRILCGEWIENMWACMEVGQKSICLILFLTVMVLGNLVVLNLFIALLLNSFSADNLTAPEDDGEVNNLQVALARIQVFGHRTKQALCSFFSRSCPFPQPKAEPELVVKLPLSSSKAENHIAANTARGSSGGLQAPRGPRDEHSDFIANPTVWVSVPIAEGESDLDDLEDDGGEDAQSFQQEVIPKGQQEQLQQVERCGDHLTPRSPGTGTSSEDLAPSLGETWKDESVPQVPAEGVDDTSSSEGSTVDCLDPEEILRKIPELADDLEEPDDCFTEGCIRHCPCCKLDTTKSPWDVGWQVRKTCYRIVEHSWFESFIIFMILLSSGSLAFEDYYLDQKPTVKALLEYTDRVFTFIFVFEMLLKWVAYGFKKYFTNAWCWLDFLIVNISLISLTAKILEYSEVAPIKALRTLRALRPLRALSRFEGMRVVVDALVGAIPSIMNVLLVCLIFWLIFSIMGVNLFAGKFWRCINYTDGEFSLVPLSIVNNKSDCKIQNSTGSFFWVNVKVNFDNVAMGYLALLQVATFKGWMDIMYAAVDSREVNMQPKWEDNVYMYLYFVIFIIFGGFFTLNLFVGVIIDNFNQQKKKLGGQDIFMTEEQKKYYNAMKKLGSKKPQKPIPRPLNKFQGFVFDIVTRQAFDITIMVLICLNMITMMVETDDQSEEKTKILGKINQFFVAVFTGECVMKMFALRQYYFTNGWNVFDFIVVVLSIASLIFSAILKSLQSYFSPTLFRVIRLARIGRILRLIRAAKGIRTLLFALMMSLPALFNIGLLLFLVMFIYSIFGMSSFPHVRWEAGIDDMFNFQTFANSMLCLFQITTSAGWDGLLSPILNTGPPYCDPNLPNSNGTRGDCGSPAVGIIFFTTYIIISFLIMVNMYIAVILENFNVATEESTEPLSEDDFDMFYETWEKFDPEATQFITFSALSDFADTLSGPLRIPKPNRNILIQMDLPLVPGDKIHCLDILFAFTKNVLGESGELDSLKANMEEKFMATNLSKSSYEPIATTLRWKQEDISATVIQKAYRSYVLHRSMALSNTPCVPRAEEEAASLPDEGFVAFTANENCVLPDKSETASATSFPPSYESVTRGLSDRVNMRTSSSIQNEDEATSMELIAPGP
- protocol summary: Activity against NaV 1.8 channel (optical membrane potential assay)
- Format: cell-based
pIC50: −log10 of the molar value.
endpoint name: pIC50

Answered cases to consult:
CCCC(O)C(=O)NC1CCN(c2nc(-c3ccccc3O)nc3ccccc23)CC1 (centres unmarked): < 5.00
O=C(N[C@@H]1CCN(c2nc(-c3ccccc3O)nc3ccc(F)cc23)C1)OCC1CCCCO1 (some centres unmarked): 5.00 to 5.70
O=C(OCc1cccnc1)N1CCN(c2nc(-c3ccccc3O)nc3ccccc23)CC1: 5.00 to 5.70
Cc1ccc2c(N3CCN(C(=O)O[C@H]4CCOC4)CC3CO)nc(-c3ccccc3O)nc2c1 (some centres unmarked): < 5.00
O=C(NC1CCN(c2nc(-c3ccccc3O)nc3ccc(F)cc23)CC1)[C@H]1CCCO1: < 5.00

Need pIC50 of Cc1ccc2c(N3CCN(C(=O)OCC(C)C)CC3)nc(-c3c(C)cccc3O)nc2c1 , thanks.
> 5.70

Dear colleague, I am looking for the recorded pIC50 of the following compound: CC(O)(C(=O)NC1CCN(c2nc(-c3ccccc3O)nc3ccccc23)CC1)C(F)(F)F (centres unmarked)
< 5.00

Returns the measured pIC50 for the input compound. Input: CC[C@H](O)C(=O)NC1CCN(c2nc(-c3ccccc3O)nc3ccccc23)CC1
< 5.00

====

- target: NaV 1.8 channel (Homo sapiens, UniProt Q9Y5Y9)
- protocol summary: Activity against NaV 1.8 channel (optical membrane potential assay)
Listing of entries alongside the reported IC50.

See these solved cases before continuing.
Cc1ccc2c(N3CC[C@@H](NC(=O)OCc4cccnc4)C3)nc(-c3ccccc3O)nc2c1: 2 to 10 µM
Cc1ccc2c(N3CCC(NC(=O)[C@H]4CCCO4)CC3)nc(-c3c(C)cccc3O)nc2c1: 2 to 10 µM
Cc1ccc2c(N3CCC(NC(=O)[C@H]4CCCO4)CC3)nc(-c3ccccc3O)nc2c1 [Example 283]: < 2 µM

# ---- query molecule ----
Using the record for Cc1ccc2c(N3CC[C@@H](NC(=O)CCc4cccnc4)C3)nc(-c3ccccc3O)nc2c1 , report its IC50.
> 10 µM

====

- target: NaV 1.8 channel (Homo sapiens, UniProt Q9Y5Y9)
- protocol summary: Activity against NaV 1.8 channel (optical membrane potential assay)
endpoint name: IC50

Worked cases, answers included:
Cc1ccc2c(N3CCN(C(=O)OCc4cccnc4)CC3)nc(-c3c(O)cccc3F)nc2c1: 2 to 10 µM
Cc1ccc2c(N3CC[C@@H](NC(=O)O[C@H]4CCOC4)C3)nc(-c3ccccc3O)nc2c1: 2 to 10 µM

Entry CCOC(=O)NC[C@@H]1CCN(c2nc(-c3ccccc3O)nc3cc(C)ccc23)C1 has what IC50?
< 2 µM

Field request: IC50 | item: CC(C)(C)C[C@@H](O)C(=O)N1CCN(c2nc(-c3ccccc3O)nc3ccc(F)cc23)CC1
> 10 µM

====

- target: NaV 1.8 channel (Homo sapiens, UniProt Q9Y5Y9)
- protocol summary: Activity against NaV 1.8 channel (optical membrane potential assay)
endpoint name: IC50

Example molecules with recorded IC50:
Cc1ccc2c(N3CC[C@@H](CNC(=O)OC(C)C)C3)nc(-c3ccccc3O)nc2c1: 2 to 10 µM
Cc1ccc2c(N3CC[C@@H](NC(=O)CC4CCOCC4)C3)nc(-c3ccccc3O)nc2c1: 2 to 10 µM
Cc1ccc2c(N3CC[C@@H](NC(=O)c4cccnc4)C3)nc(-c3c(O)cccc3F)nc2c1: > 10 µM
Cc1ccc2c(N3CC[C@@H](NC(=O)c4ccncc4)C3)nc(-c3ccccc3O)nc2c1: > 10 µM
CCC(O)(CC)C(=O)NC1CCN(c2nc(-c3ccccc3O)nc3ccccc23)CC1: > 10 µM

Please report the recorded IC50 for Cc1ccc2c(N3CCN(C(=O)CC4CCOCC4)CC3)nc(-c3ccccc3O)nc2c1 .
2 to 10 µM

Endpoint output: IC50 of O=C(O[C@H]1CCOC1)N1CCN(c2nc(-c3ccccc3O)nc3ccc(F)cc23)CC1 . Value?
2 to 10 µM

Param item = Cc1ccc2c(N3CCC(CNC(=O)OCC(C)C)CC3)nc(-c3ccccc3O)nc2c1 ; retrieve measured IC50.
> 10 µM

Need IC50, item CCCC(O)C(=O)N1CCN(c2nc(-c3ccccc3O)nc3ccccc23)CC1 (stereo not shown)
2 to 10 µM

Quick one: IC50 for CCC(C)(O)C(=O)NC1CCN(c2nc(-c3ccccc3O)nc3cc(C)ccc23)CC1 (stereo not shown) ?
2 to 10 µM

Recorded IC50 for Cc1ccc2c(N3CCC(NC(=O)OCC4CCCO4)CC3)nc(-c3ccccc3O)nc2c1 (stereo not shown) , please?
2 to 10 µM

Could you tell me which IC50 is on file for CCOC(=O)C(=O)N1CCN(c2nc(-c3ccccc3O)nc3cc(C)ccc23)CC1 ?
< 2 µM

Quick check: IC50 of Cc1ccc2c(N3CCN(C(=O)[C@H](O)CC(C)C)CC3)nc(-c3c(O)cccc3F)nc2c1 ?
2 to 10 µM

GET /values?readout=IC50&item= Cc1ccc2c(N3CCN(C(=O)[C@@H](O)C(C)(C)C)CC3)nc(-c3ccccc3O)nc2c1
> 10 µM

Query: IC50; subject: CC(C)C[C@@H](O)C(=O)N1CCN(c2nc(-c3ccccc3O)nc3cc(C(=O)O)ccc23)CC1
> 10 µM

Given the molecule Cc1ccc2c(N3CCC(NC(=O)O[C@@H]4CCOC4)CC3)nc(-c3ccccc3O)nc2c1 , what is its reported IC50?
2 to 10 µM

====

- target: NaV 1.8 channel (Homo sapiens, UniProt Q9Y5Y9)
- protocol summary: Activity against NaV 1.8 channel (optical membrane potential assay)
Reported IC50 by item:

These solved cases illustrate the format of a correct answer.
Cc1ccc2c(N3CCC(NC(=O)OCC4CCOC4)CC3)nc(-c3ccccc3O)nc2c1 (centres unmarked): 2 to 10 µM
Cc1ccc2c(N3CCC(NC(=O)OCc4ccncc4)CC3)nc(-c3ccccc3O)nc2c1: > 10 µM
Cc1ccc2c(N3CCN(C(=O)C(=O)C(C)C)CC3)nc(-c3ccccc3O)nc2c1: < 2 µM
O=C(CC1CCOCC1)N[C@@H]1CCN(c2nc(-c3ccccc3O)nc3ccc(F)cc23)C1: > 10 µM

Lab note: need IC50 with NaV 1.8 channel (Homo sapiens, UniProt Q9Y5Y9) for entry CCC(O)(CC)C(=O)N1CCN(c2nc(-c3ccccc3O)nc3ccccc23)CC1 , please look it up.
> 10 µM

What measured IC50 is associated with O=C(N[C@@H]1CCN(c2nc(-c3ccccc3O)nc3ccc(F)cc23)C1)c1cccnc1 on NaV 1.8 channel (Homo sapiens, UniProt Q9Y5Y9)?
> 10 µM

Kindly state the measured IC50 obtained for CC(C)C[C@@H](O)C(=O)N1CCN(c2nc(-c3ccccc3O)nc3ccccc23)CC1 with NaV 1.8 channel (Homo sapiens, UniProt Q9Y5Y9).
2 to 10 µM

Requested read-out IC50, target or system NaV 1.8 channel (Homo sapiens, UniProt Q9Y5Y9), entry CCC(O)(CC)C(=O)N1CCN(c2nc(-c3ccccc3O)nc3cc(C)ccc23)CC1
2 to 10 µM

Observed IC50 on NaV 1.8 channel (Homo sapiens, UniProt Q9Y5Y9) for CC(C)(O)C(=O)NC1CCN(c2nc(-c3ccccc3O)nc3ccccc23)CC1 , please.
2 to 10 µM

IC50 of Cc1ccc2c(N3CC[C@@H](NC(=O)C4CC4)C3)nc(-c3ccccc3O)nc2c1 on NaV 1.8 channel (Homo sapiens, UniProt Q9Y5Y9)?
2 to 10 µM

Can you look up IC50 on NaV 1.8 channel (Homo sapiens, UniProt Q9Y5Y9) for Cc1ccc2c(N3CCN(C(=O)[C@@H](O)CC(C)C)CC3)nc(-c3ccccc3O)nc2c1 ?
2 to 10 µM

Tell me reported IC50 for Cc1ccc2c(N3CCN(C(=O)[C@H]4CCCO4)CC3)nc(-c3ccccc3O)nc2c1 , tested with NaV 1.8 channel (Homo sapiens, UniProt Q9Y5Y9).
2 to 10 µM

Give the reported IC50 for Cc1ccc2c(N3CCC[C@H](CNC(=O)O[C@@H]4CCOC4)C3)nc(-c3ccccc3O)nc2c1 (system: NaV 1.8 channel (Homo sapiens, UniProt Q9Y5Y9)).
> 10 µM

Which IC50 is reported with NaV 1.8 channel (Homo sapiens, UniProt Q9Y5Y9) for this entry: CC[C@H](O)C(=O)NC1CCN(c2nc(-c3ccccc3O)nc3cc(C)ccc23)CC1 ?
> 10 µM
